Recorded values, source patent US5840895A.

# System: allergic edema reaction at paw
# Procedure Summary: Test for suppressing immediate and delayed allergic reaction (allergic edema reaction at paw, DNP-OA)
# Assay type: in vivo, rat (male Wister)
# Run Conditions: Rattus norvegicus, 0.5 h; oral, dose: 30 mg/kg of body weight, 30 minutes after induction; read-out: Suppressing Rate, Immediate Reaction
Examples of molecules with documented inhibition in vivo at 30 mg/kg follow.
Write it as a number; the unit % goes unstated.

[[record]]
molecule = "Cc1ccc2c(=O)c3[nH]nnc3c(=O)[nH]c2c1 [Example 4]"
numeric_readout = 70.5

[[record]]
molecule = "Cc1cccc2c(=O)c3[nH]nnc3c(=O)[nH]c12 [Example 3]"
numeric_readout = 46.6

[[record]]
molecule = "O=c1[nH]c2ccccc2c(=O)c2[nH]nnc12 [Example 1]"
numeric_readout = 56.4


Lab note: next molecule to report on.
Prompt: So what's the measured inhibition in vivo at 30 mg/kg for this one? Cc1ccc2[nH]c(=O)c3nn[nH]c3c(=O)c2c1 [Example 5]
Completion: 48.7

###

# System: allergic edema reaction at paw
# Procedure Summary: Test for suppressing immediate and delayed allergic reaction (allergic edema reaction at paw, DNP-OA)
# Assay type: in vivo, rat (male Wister)
# Run Conditions: Rattus norvegicus, 0.5 h; oral, 10 mg/kg, edema volume 30 minutes after induction; read-out: Suppressing Rate, Immediate Reaction
Examples of molecules with documented inhibition in vivo at 10 mg/kg follow.
Write it as a number; the unit % goes unstated.

[[record]]
molecule = "CCOc1ccc2c(=O)c3[nH]nnc3c(=O)[nH]c2c1 [Example 27]"
numeric_readout = 48


Prompt: So what's the measured inhibition in vivo at 10 mg/kg for this one? COc1cc2[nH]c(=O)c3nn[nH]c3c(=O)c2cc1OC [Example 43]
Completion: 59

Prompt: So what's the measured inhibition in vivo at 10 mg/kg for this one? O=c1[nH]c2cc(CNS(=O)(=O)c3ccccc3)ccc2c(=O)c2[nH]nnc12 [Example 69]
Completion: 50

Prompt: So what's the measured inhibition in vivo at 10 mg/kg for this one? Cc1ccc2c(=O)c3[nH]nnc3c(=O)[nH]c2c1 [Example 46]
Completion: 64

Prompt: So what's the measured inhibition in vivo at 10 mg/kg for this one? COc1ccc(C(=O)COc2ccc3[nH]c(=O)c4nn[nH]c4c(=O)c3c2)cc1 [Example 84]
Completion: 48

###

# Tested on: allergic edema reaction at paw
# Procedure Summary: Test for suppressing immediate and delayed allergic reaction (allergic edema reaction at paw, DNP-OA)
# Assay type: in vivo, rat (male Wister)
# Run Conditions: Rattus norvegicus, 0.5 h; oral, 10 mg/kg, edema volume 30 minutes after induction; read-out: Suppressing Rate, Immediate Reaction
Examples of molecules with documented inhibition in vivo at 10 mg/kg follow.

Solved cases (2 shown):
[[record]]
molecule_smiles = "CC(=O)/C=C/c1ccc2c(=O)c3[nH]nnc3c(=O)[nH]c2c1"
target_under_test = "allergic edema reaction at paw"
result = "63%"

[[record]]
molecule_smiles = "CCc1ccc2c(=O)c3[nH]nnc3c(=O)[nH]c2c1"
target_under_test = "allergic edema reaction at paw"
result = "59%"


Prompt: # value lookup — system allergic edema reaction at paw, readout inhibition in vivo at 10 mg/kg, item COC(=O)/C=C/c1ccc2c(=O)c3[nH]nnc3c(=O)[nH]c2c1
Completion: 79%
